Values were extracted from patent US20240116985A1.

Some compounds, each annotated with its measured IC50.
Target: beta-catenin/TCF4 engagement (Homo sapiens)
Construct: expressed in transfected cells; host or cells: HEK293
Sequence (P35222 1-781): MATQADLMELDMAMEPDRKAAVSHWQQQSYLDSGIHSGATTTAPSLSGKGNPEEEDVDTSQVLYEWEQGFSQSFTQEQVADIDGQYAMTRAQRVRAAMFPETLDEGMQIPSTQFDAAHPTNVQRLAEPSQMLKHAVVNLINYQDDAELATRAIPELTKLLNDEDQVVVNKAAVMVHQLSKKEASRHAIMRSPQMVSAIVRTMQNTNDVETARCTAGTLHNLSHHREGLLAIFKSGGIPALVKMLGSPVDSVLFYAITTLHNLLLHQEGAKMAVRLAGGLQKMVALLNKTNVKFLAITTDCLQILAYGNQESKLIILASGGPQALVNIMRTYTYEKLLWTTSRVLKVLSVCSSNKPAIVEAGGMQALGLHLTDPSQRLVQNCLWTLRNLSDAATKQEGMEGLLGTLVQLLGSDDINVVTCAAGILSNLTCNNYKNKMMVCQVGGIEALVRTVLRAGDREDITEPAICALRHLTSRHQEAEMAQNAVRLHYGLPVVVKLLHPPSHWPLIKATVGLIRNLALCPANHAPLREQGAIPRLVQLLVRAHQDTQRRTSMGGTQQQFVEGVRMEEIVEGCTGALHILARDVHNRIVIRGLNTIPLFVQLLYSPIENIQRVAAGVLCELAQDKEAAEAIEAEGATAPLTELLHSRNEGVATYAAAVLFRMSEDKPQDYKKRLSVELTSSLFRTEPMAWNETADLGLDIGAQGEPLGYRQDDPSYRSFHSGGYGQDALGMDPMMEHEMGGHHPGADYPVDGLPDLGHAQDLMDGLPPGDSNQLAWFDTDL
Assay: Nano-BRET target engagement assay (B-cat-Halo & TCF4-Luc in HEK293 cells)
Assay type: cell-based
Conditions: absolute IC50; read-out: NanoBRET Abs IC50
# number only, unit µM dropped from output

For orientation, consider the following solved cases.
>  <compound>
CCCC[C@@H]1NC(=O)[C@H](CC(=O)O)NC(=O)[C@]2(CC=CCCCC3(CCCC=CCCCOC(=O)N4CC[C@@](C(=O)N[C@@H](Cc5ccsc5)C(=O)N[C@@H](Cc5csc6ccccc56)C(=O)N[C@@H](CCC(N)=O)C(N)=O)(C4)NC(=O)[C@H](CC(C)C)NC(=O)[C@H](Cc4ccccc4)NC(=O)[C@H](C)NC(=O)[C@H](C)NC(=O)[C@H](CC(=O)O)NC(=O)[C@H](CC(=O)O)NC3=O)NC1=O)CCCN2C(C)=O (some centres unmarked) [I-1400]

>  <IC50 [µM]>
20.3

$$$$
>  <compound>
CC(=O)N1CCC[C@]12CC=CCCCC1(CCCC=CCCCOC(=O)N3CC[C@@](C(=O)N[C@@H](Cc4ccsc4)C(=O)N[C@@H](Cc4cccc(Br)c4)C(=O)N[C@@H](CCC(N)=O)C(N)=O)(C3)NC(=O)[C@H](CC(C)C)NC(=O)[C@H](Cc3ccccc3)NC(=O)[C@H](C)NC(=O)[C@H](C)NC(=O)[C@H](Cc3cccc(C(=O)O)c3)NC(=O)[C@H](CC(=O)O)NC1=O)NC(=O)[C@H](CC(C)(C)C)NC(=O)[C@H](CC(=O)O)NC2=O (some centres unmarked) [I-2307]

>  <IC50 [µM]>
8.9

$$$$

[ask] Look up IC50: CC(=O)N1CCC[C@]12CC=CCCCC1(CCCC=CCCCOC(=O)N3CC[C@@](C(=O)N[C@@H](Cc4ccsc4)C(=O)N[C@@H](Cc4csc5ccccc45)C(=O)N[C@@H](CCC(N)=O)C(N)=O)(C3)NC(=O)[C@H](CC(C)C)NC(=O)[C@H](Cc3ccccc3)NC(=O)[C@H](C)NC(=O)[C@H](C)NC(=O)[C@H](CNc3ccc([N+](=O)[O-])cc3C(=O)O)NC(=O)[C@H](CC(=O)O)NC1=O)NC(=O)[C@H](CC(C)(C)C)NC(=O)[C@H](CC(=O)O)NC2=O (some centres unmarked) [I-1843]
[reply] 9.5

[ask] Item CC(=O)N1CCC[C@]12CC=CCCCC1(CCCC=CCCCOC(=O)N3CC[C@@](C(=O)N[C@@H](Cc4c(F)c(F)c(F)c(F)c4F)C(=O)N[C@@H](Cc4csc5ccccc45)C(=O)N[C@@H](CCC(N)=O)C(N)=O)(C3)NC(=O)[C@H](CC(C)C)NC(=O)[C@H](Cc3ccccc3)NC(=O)[C@H](C)NC(=O)[C@H](C)NC(=O)[C@H](CC(=O)O)NC(=O)[C@H](CC(=O)O)NC1=O)NC(=O)[C@H](CC(C)(C)C)NC(=O)[C@H](CC(=O)O)NC2=O (some centres unmarked) [I-1185] has what recorded IC50?
[reply] 26.9

[ask] Which value of IC50 has been reported for CC(=O)N1CCC[C@]12CC=CCCCC1(CCCC=CCCCCCC[C@@](C)(C(=O)N[C@@H](Cc3ccccc3)C(=O)N[C@@H](Cc3csc4ccccc34)C(=O)N[C@@H](CCC(N)=O)C(N)=O)NC(=O)[C@H](CC(N)=O)NC(=O)[C@H](Cc3ccccc3)NC(=O)[C@H](C)NC(=O)[C@H](C)NC(=O)[C@H](CC(=O)O)NC(=O)[C@H](CC(=O)O)NC1=O)NC(=O)[C@H](CCC(C)C)NC(=O)[C@H](CC(=O)O)NC2=O (some centres unmarked) [I-548] in the records?
[reply] 15.6
